Origin of measurements: the supplement of paper PMC4862054

Test system: Hs578T
protocol_summary: normalised response (% of control), CellTiter-Glo; higher = more viable cells (100 = DMSO, 0 = benzethonium chloride kill control)
condition_notes: incubation time: 72 h
recorded_endpoint: normalised response (%)
Field format: number, assumed %, no unit text.

Which measured normalised response value corresponds to O=C(/C=C/c1cccc(S(=O)(=O)Nc2ccccc2)c1)NO [Belinostat] (100 nM) ?
95

// repeat for COc1cc2c(NC3CCN(C(C)C)CC3)nc(N3CCC(F)(F)CC3)nc2cc1OCCCN1CCCC1 [UNC0642] (100 nM) and report
98.6

// repeat for S=P(N1CC1)(N1CC1)N1CC1 [Thio-TEPA] (500 nM) and report
101

---

Quick list: normalised response per entry.
Test system: MDA-MB-436
protocol_summary: normalised response (% of control), CellTox Green; higher = less cell death (100 = DMSO, 0 = benzethonium chloride kill control)
condition_notes: incubation time: 72 h
Field format: number, assumed %, no unit text.

CNC(=O)c1ccc(N2C(=S)N(c3ccc(C#N)c(C(F)(F)F)c3)C(=O)C2(C)C)cc1F [Enzalutamide] (100 nM): 96.9
COc1cc2/c(=N/c3ccc(Br)cc3F)nc[nH]c2cc1OCC1CCN(C)CC1 [Vandetanib] (10 nM): 55

Which measured normalised response value corresponds to CNC(=O)c1cc(Oc2ccc(NC(=O)Nc3ccc(Cl)c(C(F)(F)F)c3)c(F)c2)ccn1 [Regorafenib] (1000 nM) ?
108

// repeat for COCC[n+]1c2c(n(Cc3cnccn3)c1C)C(=O)c1ccccc1C2=O [YM155] (10000 nM) and report
32.2

// repeat for CNC(=O)c1ccc(N2C(=S)N(c3ccc(C#N)c(C(F)(F)F)c3)C(=O)C23CCC3)cc1F [RD162] (1000 nM) and report
111

---

Quick list: normalised response per entry.
Test system: MDA-MB-468
protocol_summary: normalised response (% of control), CellTox Green; higher = less cell death (100 = DMSO, 0 = benzethonium chloride kill control)
condition_notes: incubation time: 72 h
Record the result as a number with its unit.

# count of solved cases: 5
COCC1(CO)C(=O)C2CCN1CC2 (stereo not drawn) [Prima-1 Met] (1000 nM): 103%
O=C(/C=C/c1cccc(S(=O)(=O)Nc2ccccc2)c1)NO [Belinostat] (10000 nM): 43.3%
CO[C@H]1C[C@@H]2CC[C@@H](C)[C@@](O)(O2)C(=O)C(=O)N2CCCC[C@H]2C(=O)O[C@H]([C@H](C)C[C@@H]2CC[C@@H](OP(C)(C)=O)[C@H](OC)C2)CC(=O)[C@H](C)/C=C(\C)[C@@H](O)[C@@H](OC)C(=O)[C@H](C)C[C@H](C)/C=C/C=C/C=C/1C [Ridaforolimus] (10 nM): 124%
Cc1ccc(NC(=O)c2ccc(CN3CCN(C)CC3)cc2)cc1Nc1nc(-c2cccnc2)cs1 [Masitinib] (10000 nM): 37%
Cc1ccc(NC(=O)c2ccc(CN3CCN(C)CC3)cc2)cc1Nc1nc(-c2cccnc2)cs1 [Masitinib] (1000 nM): 177%

Which measured normalised response value corresponds to COc1cc2c(NC3CCN(C(C)C)CC3)nc(N3CCC(F)(F)CC3)nc2cc1OCCCN1CCCC1 [UNC0642] (100 nM) ?
131%

// repeat for Cc1[nH]c2ccccc2c1CCNCc1ccc(/C=C/C(=O)NO)cc1 [Panobinostat] (100 nM) and report
82.5%

// repeat for N#Cc1ccc(COC[C@H]2O[C@@H](n3c(NCc4ccc(Cl)c(Cl)c4)nc4c(N)ncnc43)[C@H](O)[C@@H]2O)cc1 (100 nM) and report
130%
